System: Aβ42
Assay: Screening for γ-secretase-modulating activity, Method 1: Aβ42 sandwich ELISA in supernatant of SKNBE2 cells carrying APP 695 wild type (Tables 12a, 12b)
Assay type: cell-based
Conditions: Homo sapiens; Table 12b; Method 1, SKNBE2 cells carrying APP 695 wild type, cell supernatant ELISA; averaged IC50 values, percentage of control vs log concentration
Listed below: IC50 values for each entry.

>>> observed_measurement("COc1cc(Nc2cccn3cc(-c4ccccc4F)nc23)ccc1-n1cnc(C)c1")
"174 nM"

[ask] I have this compound here, COc1cc(Nc2cccn3c(C)c(-c4ccccc4)nc23)ccc1-n1cnc(C)c1 , and I need its recorded IC50.
[reply] 12 nM

[ask] What value of IC50 has been recorded for this entry: COc1cc(Nc2cccn3c(-c4ccccc4-c4ccccc4)cnc23)ccc1-n1cnc(C)c1
[reply] < 110 nM
